For each record, write down the corresponding inhibition at 20 µM.
Biological target: KRas G12D mutant (Homo sapiens (Human), UniProt P01116, G12D)
Sequence (P01116 other isoform, or with tags, fused parts or gaps G12D): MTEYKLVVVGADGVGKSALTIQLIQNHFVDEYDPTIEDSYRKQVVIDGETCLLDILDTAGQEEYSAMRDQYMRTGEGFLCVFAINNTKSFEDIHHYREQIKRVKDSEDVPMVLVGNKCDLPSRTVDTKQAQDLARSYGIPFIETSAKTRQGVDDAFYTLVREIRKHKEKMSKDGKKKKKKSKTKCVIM
Test: Ras GTP Binding Domain Inhibition Assay, KRas G12D mutant
Details: 20 μM; + SOS; Table 7; read-out: KRas G12D mutant + SOS: % inh.

Answer briefly: inhibition at 20 µM recorded on KRas G12D mutant (Homo sapiens (Human), UniProt P01116, G12D) for COCCNc1nc(-c2cn(C)cn2)nc2sc(-c3cccc(OC)c3Cl)c(-c3ccc(OC)cc3)c12
26 to 45%

Answer briefly: inhibition at 20 µM recorded on KRas G12D mutant (Homo sapiens (Human), UniProt P01116, G12D) for COc1cccc(-c2sc3nc(-c4nccn4C)nc(N[C@@H]4CC[C@@H](OC)C4)c3c2-c2ccccc2)c1F (racemic)
46 to 75%

Answer briefly: inhibition at 20 µM recorded on KRas G12D mutant (Homo sapiens (Human), UniProt P01116, G12D) for COc1cccc(Nc2nc(-c3nccn3C)nc3sc(-c4ccn(C(C)C)n4)c(C)c23)c1
46 to 75%

Answer briefly: inhibition at 20 µM recorded on KRas G12D mutant (Homo sapiens (Human), UniProt P01116, G12D) for COCCCNc1nc(-c2nccn2C)nc2sc(-c3ccccc3)c(-c3ccccc3)c12
1 to 25%

Answer briefly: inhibition at 20 µM recorded on KRas G12D mutant (Homo sapiens (Human), UniProt P01116, G12D) for COc1cc(-c2sc3nc(-c4nccn4C)nc(N[C@H]4C[C@H](OC)C4)c3c2-c2ccccc2)ccn1
46 to 75%

Answer briefly: inhibition at 20 µM recorded on KRas G12D mutant (Homo sapiens (Human), UniProt P01116, G12D) for COc1cc(Nc2nc(-c3nccn3C)nc3sc(-c4ccn(C(C)C)n4)c(C)c23)ncn1
46 to 75%

Answer briefly: inhibition at 20 µM recorded on KRas G12D mutant (Homo sapiens (Human), UniProt P01116, G12D) for COCCn1ccnc1-c1nc(N[C@H]2C[C@@H](OC)C2)c2c(-c3ccccc3)c(-c3ccn(C)n3)sc2n1
76 to 100%
